molecular target: A2A adenosine receptor (Homo sapiens, UniProt P29274); assay: cAMP assay for adenosine receptor (HTRF), HEK-A2A; details: HEK-A2A cells, agonist 10 nM CGS-21680, Rolipram 20 μM, read-out: A2A Functional Ki
Sequence (P29274 whole entry): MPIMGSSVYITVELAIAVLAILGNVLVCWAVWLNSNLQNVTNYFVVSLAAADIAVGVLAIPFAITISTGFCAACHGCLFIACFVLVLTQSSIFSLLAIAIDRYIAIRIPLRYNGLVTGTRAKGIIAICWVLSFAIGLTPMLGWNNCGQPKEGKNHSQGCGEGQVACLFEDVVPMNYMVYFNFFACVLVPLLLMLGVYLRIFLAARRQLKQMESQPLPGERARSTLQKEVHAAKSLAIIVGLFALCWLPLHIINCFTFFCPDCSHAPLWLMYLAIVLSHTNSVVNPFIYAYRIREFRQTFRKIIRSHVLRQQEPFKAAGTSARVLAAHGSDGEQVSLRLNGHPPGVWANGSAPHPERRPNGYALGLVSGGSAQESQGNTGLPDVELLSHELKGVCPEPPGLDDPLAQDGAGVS
Measured Endpoint: Ki

CCCn1c(=O)c2[nH]c(-c3cnn(CC#Cc4cc(C(=O)OCC)ccc4C)c3)nc2n2ccnc12 [Example B6]    30 to 100 nM
CCCn1c(=O)c2[nH]c(-c3cnn(Cc4cccc(C(F)(F)F)c4)c3)nc2n2ccnc12 [Example A1]    < 10 nM
CCCn1c(=O)c2[nH]c(-c3cnn(C)c3)nc2n2ccnc12 [Example A6]    > 100 nM
CCCn1c(=O)c2[nH]c(-c3cnn(CC)c3)nc2n2ccnc12 [Example B10]    10 to 30 nM
CCCn1c(=O)c2[nH]c(-c3cnn(Cc4cccc(C#N)c4)c3)nc2n2ccnc12 [Example B7]    < 10 nM
CCCn1c(=O)c2[nH]c(-c3cnn(CCOC)c3)nc2n2ccnc12 [Example B11]    > 100 nM
CCCn1c(=O)c2[nH]c(-c3cnn(CC(C)(C)C)c3)nc2n2ccnc12 [Example B19]    < 10 nM
CCCn1c(=O)c2[nH]c(-c3cnn(CC(C)C)c3)nc2n2ccnc12 [Example B17]    10 to 30 nM
CCCn1c(=O)c2[nH]c(-c3cnn(CC4CCC4)c3)nc2n2ccnc12 [Example B16]    < 10 nM
CCCn1c(=O)c2[nH]c(-c3cnn(CC(=O)O)c3)nc2n2ccnc12 [Example H1]    > 100 nM
CCCn1c(=O)c2[nH]c(-c3cnn(CCN4CCCCC4)c3)nc2n2ccnc12 [Example D1]    30 to 100 nM
CCCn1c(=O)c2[nH]c(-c3cnn(CC(=O)N(C)C)c3)nc2n2ccnc12 [Example B14]    > 100 nM
CCCn1c(=O)c2[nH]c(-c3cnn(C(C)CC)c3)nc2n2ccnc12 (centres unmarked) [Example B20]    < 10 nM
CCCn1c(=O)c2[nH]c(-c3cnn(CCN(C)C)c3)nc2n2ccnc12 [Example B12]    > 100 nM
CCCn1c(=O)c2[nH]c(-c3cnn(C(C)(C)CC)c3)nc2n2ccnc12 [Example A7]    < 10 nM
CCCn1c(=O)c2[nH]c(-c3cnn(Cc4cccc(C(=O)O)c4)c3)nc2n2ccnc12 [Example G1]    10 to 30 nM
CCCn1c(=O)c2[nH]c(-c3cnn(Cc4cccc(C(C)(C)O)c4)c3)nc2n2ccnc12 [Example F1]    10 to 30 nM
